Reference for the values: the METLIN SMRT retention time set (Domingo-Almenara et al. 2019)

assayMethodText: gradient 5% acetonitrile 3 min, to 50% in 2 min, to 85% in 15 min, held 3 min, 100 µL/min
appliedConditions: column: Zorbax Extend-C18 2.1 x 50 mm; eluents: water / acetonitrile, 0.1% formic acid
Please provide measured RP-LC retention time for the entries that follow.
One number for each entry, in s.

Example results:
CN(CC1(C)CCOCC1)C(=O)c1ccc2cc[nH]c2c1 | 696
CC(=O)N1CCN(c2nc3c(s2)CC(C(=O)N2CCCCC2)CC3)CC1 (stereo not given) | 548
Cc1c(CCC(=O)N[C@H](CCS(C)=O)C(=O)O)c(=O)oc2cc(O)ccc12 (stereo not given in full) | 575
Cc1ccc(NC(=O)N2C[C@@H](F)C[C@H]2C(=O)N2CCCCC2)cc1Cl | 813
CC1CCN(C(=O)c2cn(-c3ccc(S(=O)(=O)N4CCCC(C)C4)cn3)cn2)CC1 (stereo not given) | 954

Please state RP-LC retention time for every compound in the list that follows.
1. O=C(NC1CCCCCC1)c1ccc2c(c1)nc1n2CCN(c2ccccc2)C1=O
2. Cc1ccc(CN2CCCC(c3nncn3Cc3ccccc3)C2)o1 (stereo not given)
3. Cn1ccc2c(cc(C(=O)N3CCN(c4ccccc4F)CC3)n2C)c1=O
4. CC(C)c1nc(C2CN(C(=O)Nc3ccc(F)cc3)C2)n(C)n1
5. Cc1ccc(-c2noc(Cn3c(=O)n(-c4ccc(F)cc4)c(=O)c4sccc43)n2)cc1C

(A)
804
745
723
672
1080

====

assayMethodText: gradient 5% acetonitrile 3 min, to 50% in 2 min, to 85% in 15 min, held 3 min, 100 µL/min
appliedConditions: column: Zorbax Extend-C18 2.1 x 50 mm; eluents: water / acetonitrile, 0.1% formic acid
Decide by RP-LC retention time: equal to or exceeding 800 s means 1, less means -1.

Take a look at these entries with their results.
O=C(NCc1ccco1)N1CCN(c2nc3ccccc3n(Cc3ccccc3)c2=O)CC1 | 1
Cc1nc(-c2ccc(-c3noc(-c4ccncc4)n3)cc2)cs1 | 1
CCOc1ccccc1NC(=O)N1CCN(Cc2nc3cc(Cl)ccc3o2)CC1 | 1
Cc1cccc(-n2c(=O)c3c(cc(C)n3C)n(CC(=O)Nc3c(C)cc(C)cc3C)c2=O)c1 | 1
Cc1nnc(N2CCCC(C(=O)NCc3cccc(Cl)c3)C2)c2nn(-c3ccccc3)c(C)c12 (stereo not given) | -1

(Q) Given "O=C(c1cncc(NS(=O)(=O)c2ccc(Cl)cc2)c1)N1CCCc2ccccc21" , state whether its RP-LC retention time is at least 800 s.
(A) 1

(Q) Given "COc1ccc(F)cc1S(=O)(=O)N1CCc2nn(CC3CC3)c(=O)n2CC1" , state whether its RP-LC retention time is at least 800 s.
(A) 1

(Q) Given "O=C(c1ccsc1)N1CCCn2cc(-c3ccccc3F)nc21" , state whether its RP-LC retention time is at least 800 s.
(A) -1

(Q) Given "CCn1cc(CCNC(=O)NCC(C)C)c2cccnc21" , state whether its RP-LC retention time is at least 800 s.
(A) -1

(Q) Given Cn1ccc2cc(S(=O)(=O)N3CCCC(C(=O)NCCCN4CCc5ccccc5C4)C3)ccc21 (stereo not given) , state whether its RP-LC retention time is at least 800 s.
(A) -1

(Q) Given "Cc1cc(N2CCCC2)n2nc(-c3ccc(C(C)(C)C)cc3)nc2n1" , state whether its RP-LC retention time is at least 800 s.
(A) 1

====

assayMethodText: gradient 5% acetonitrile 3 min, to 50% in 2 min, to 85% in 15 min, held 3 min, 100 µL/min
appliedConditions: column: Zorbax Extend-C18 2.1 x 50 mm; eluents: water / acetonitrile, 0.1% formic acid
Please provide measured RP-LC retention time for the entries that follow.
Answers are plain numbers, in s.

Fc1ccc(-c2nc(-c3cn(-c4cccc(F)c4)nn3)no2)cc1 | 1080

Please state RP-LC retention time for every molecule in the list that follows.
1. CC(=O)Nc1nc(-c2ccc3c(c2)NC(=O)CO3)cs1
2. Cc1cc(-c2nc(-c3ccc(F)cc3)no2)c(C)n1CC(=O)NC1CCCC1
3. CCN1C(=O)C(C)(C(=O)Nc2cc(C)ccc2C)Oc2cccnc21 (stereo not given)
4. CC(C)CCNC(=O)N1CCN(c2ncccc2-c2nnc(C3CC3)o2)CC1
5. CC(CNC(=O)c1cc2c(s1)CN(C1CC1)C2)c1ccccc1 (stereo not given)
6. Cc1cccc(C)c1NC(=O)Cn1nc(N2CCC(C)CC2)c2ccccc2c1=O

(A)
1: 633; 2: 1080; 3: 744; 4: 765; 5: 731; 6: 1240

====

assayMethodText: gradient 5% acetonitrile 3 min, to 50% in 2 min, to 85% in 15 min, held 3 min, 100 µL/min
appliedConditions: column: Zorbax Extend-C18 2.1 x 50 mm; eluents: water / acetonitrile, 0.1% formic acid
readoutLabel: RP-LC retention time

Example results:
O=C(COc1ccc(C2=NN(C(=O)c3cccs3)C(c3ccccc3)C2)cc1)NCCO (centres undefined) | 695 s
CS(=O)(=O)N1CCC(C(=O)Nc2nnc(-c3ccc(F)cc3)o2)CC1 | 636 s
CC(C)c1ccc(OCC(=O)Nc2cc3c(cc2N2CCOCC2)n(C)c(=O)c(=O)n3C)cc1 | 921 s
COc1cccc(CNC2=NCCNC23CCN(S(=O)(=O)c2ccc4c(c2)CCCC4)CC3)c1 | 822 s
COCC1(O)CCOC2(CCN(Cc3ccc(F)cc3)CC2)C1 (centres undefined) | 654 s

Please state RP-LC retention time for every compound in the list that follows.
1. CCC(C)NC(=O)c1cnn(-c2ccc(-c3nc(C(C)C)no3)cn2)c1C (centres undefined)
2. CCN1C(=O)c2ccccc2Oc2ccc(C(=O)NCc3ccc(C)cc3)cc21
3. O=C(c1ccc(Br)o1)N1C[C@@H](CO)[C@H](c2ccncc2)C1

(A)
1. 1000 s
2. 958 s
3. 515 s

====

assayMethodText: gradient 5% acetonitrile 3 min, to 50% in 2 min, to 85% in 15 min, held 3 min, 100 µL/min
appliedConditions: column: Zorbax Extend-C18 2.1 x 50 mm; eluents: water / acetonitrile, 0.1% formic acid
Decide by RP-LC retention time: equal to or exceeding 700 s means Y, less means N.

Take a look at these entries with their results.
CC1CCC(NC(=O)c2nnn(Cc3ccc(F)cc3)c2-n2cccc2)CC1 (stereo not given) | Y
COc1cccc(-c2nc(-c3ccc4c(c3)ncn4CCN3CCCC3)no2)c1OC | N
c1ccc(-c2noc(N3CCCCC3)n2)cc1 | Y

Field: next compound
(Q) Given "Cc1ccc(C(=O)N2CCN(c3nnc4cccc(C)n34)CC2)cc1" , state whether its RP-LC retention time is at least 700 s.
(A) N

====

Please provide measured RP-LC retention time for the entries that follow.
assayMethodText: gradient 5% acetonitrile 3 min, to 50% in 2 min, to 85% in 15 min, held 3 min, 100 µL/min
appliedConditions: column: Zorbax Extend-C18 2.1 x 50 mm; eluents: water / acetonitrile, 0.1% formic acid
Give bare numbers, in s.

Example results:
O=C(Nc1ccc2c(c1)CCCN2C(=O)C1CC1)c1ccccc1[N+](=O)[O-] | 716
O=C(Nc1cccc(Cl)c1)N1CCCC1c1nc(-c2ccc(F)cc2F)no1 (stereo not given) | 1030
O=C(O)c1cc2c([nH]c1=O)CCCC2O (stereo not given) | 516
NS(=O)(=O)c1ccc(NC(=O)CCCN2C(=O)c3cccc4cccc(c34)C2=O)cc1 | 694
O=C(O)c1cc2cccc([N+](=O)[O-])c2[nH]1 | 746

Please state RP-LC retention time for every compound in the list that follows.
1. CCOc1ccc(-c2nc(-c3ccc4c(c3)ncn4CCC(=O)N3CCCC3)no2)cc1
2. CCOc1ccc(C(=O)N2CCC3(CC2)NC(=O)c2ccc(F)cc2N3C)cc1

(A)
825
767

Please state RP-LC retention time for every compound in the list that follows.
1. O=C(Nc1cccc(F)c1)C1CCN(S(=O)(=O)c2cc(C(=O)N3CCCCCC3)cs2)CC1
2. CCn1cnc2ccc(-c3noc(-c4ccc(OC)cc4)n3)cc21
3. CCn1cnc(S(=O)(=O)N2CCC(C(=O)Nc3cccc(C)c3C)CC2)c1
4. Cc1ccnc(N2CCC(C(=O)NCc3ccc(CN4CCCCCC4)o3)CC2)n1
5. C=CCN1C(=O)COc2ccc(-c3nc(NC(=O)C4CCCCC4)sc3C)cc21
6. CCN1CCCn2cc(S(=O)(=O)NCc3cccc(F)c3)cc2C1=O

(A)
939
753
721
567
1080
754

Please state RP-LC retention time for every compound in the list that follows.
1. CN(C)c1ccc(-c2nc3cnccn3c2Nc2cccc(C(N)=O)c2)cc1
2. COc1cc(NC(=O)Cn2ccc3sc(C)cc3c2=O)cc(OC)c1
3. CCCCN(C)c1ccc2nnc(CCc3nc(-c4cccc(C)c4)no3)n2n1
4. COc1cccc(-c2cc3n(n2)CCCN(C(=O)c2ccc(OC)c(OC)c2)C3)c1

(A)
1: 609; 2: 795; 3: 951; 4: 654

Please state RP-LC retention time for every compound in the list that follows.
1. CN1C(=O)COc2cc(-c3noc(C(=O)NCCCN4CCCC4)n3)ccc21
2. CC(C)c1ccc(C(=O)Nc2cc(-c3ccccn3)no2)cc1
3. Cn1cc(-c2ccc(F)cc2)cc1C(=O)N1CCCC1

(A)
1: 604; 2: 960; 3: 906
